- study_target: AsPC-1 HiBiT-KRASG12D (Homo sapiens, UniProt P01116, G12D)
- Construct: insert the HiBiT tag onto the N-terminus of one or more of the endogenous KRAS alleles; endogenous in cells; host or cells: AsPC-1 (ATCC CRL-1682), CRISPR-Cas9 knock-in clone, one tagged allele
- Sequence (P01116 1-188 isoform P01116-2 G12D): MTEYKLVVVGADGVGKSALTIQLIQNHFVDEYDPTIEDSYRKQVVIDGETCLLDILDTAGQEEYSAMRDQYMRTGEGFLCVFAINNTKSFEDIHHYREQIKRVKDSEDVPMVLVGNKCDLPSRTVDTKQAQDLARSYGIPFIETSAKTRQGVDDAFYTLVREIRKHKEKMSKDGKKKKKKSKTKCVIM
- experiment_notes: HiBiT degradation assay (G12D), AsPC-1 HiBiT-KRASG12D cells
- Type: cell-based
- measurement_parameters: ASPC1, AsPC-1 HiBiT-KRASG12D cells, 24 hours treatment, maximum degradation observed
observation_type: Dmax

Observe how each entry below is paired with its result.
compound | Dmax
CCc1cccc2cc(O)cc(-c3ncc4c(N5CC6CCC(C5)N6)nc(OC[C@@H]5CN(CC6CN(c7cc([C@H](C(=O)N8C[C@H](O)C[C@H]8C(=O)N[C@@H](C)c8ccc(-c9scnc9C)cc8)C(C)C)on7)C6)CCN5C)nc4c3F)c12 [Compound 163] | 60 to 80%
CCc1cccc2cc(O)cc(-c3ncc4c(N5CC6CCC(C5)N6)nc(OC[C@]56CCCN5[C@H](COC(=O)N5CCN(c7cc([C@H](C(=O)N8C[C@H](O)C[C@H]8C(=O)N[C@@H](C)c8ccc(C#N)cc8)C(C)C)on7)CC5)CC6)nc4c3F)c12 [Compound 66] | 60 to 80%
C#Cc1c(F)ccc2cc(O)cc(-c3ncc4c(N5CC6CCC(C5)N6)nc(OCCN5CCC6(CC5)CC(Oc5cc([C@H](C(=O)N7C[C@H](O)C[C@H]7C(=O)N[C@@H](C)c7ccc(-c8scnc8C)cc7)C(C)C)on5)C6)nc4c3F)c12 [Compound 161] | 80 to 100%

In the following, a different compound is considered.
// field: Dmax; key: CCc1cccc2cc(O)cc(-c3ncc4c(N5CC6CCC(C5)N6)nc(OCCN5CCC(F)(CN6CCN(c7cc([C@@H](C(=O)N8C[C@H](O)C[C@H]8C(=O)N[C@@H](C)c8ccc(-c9ccnn9C)cc8)C(C)C)on7)CC6)CC5)nc4c3F)c12 [Compound 197] ; value = < 20%

----------
- study_target: AsPC-1 HiBiT-KRASG12D (Homo sapiens, UniProt P01116, G12D)
- Construct: insert the HiBiT tag onto the N-terminus of one or more of the endogenous KRAS alleles; endogenous in cells; host or cells: AsPC-1 (ATCC CRL-1682), CRISPR-Cas9 knock-in clone, one tagged allele
- experiment_notes: HiBiT degradation assay (G12D), AsPC-1 HiBiT-KRASG12D cells
- Assay type: cell-based
- measurement_parameters: AsPC-1 HiBiT-KRASG12D cells, 24 hours treatment, HiBiT luminescence
Kindly state DC50 for each of the entries shown.

smiles_input | DC50
CCc1cccc2cc(O)cc(-c3ncc4c(N5CC6CCC(C5)N6)nc(OCCN5CCC(F)(CN6CCN(c7cc([C@@H](C(=O)N8C[C@H](O)C[C@H]8C(=O)N[C@@H](C)c8ccc(-c9scnc9C)cc8)C(C)C)on7)[C@@H](C)C6)CC5)nc4c3F)c12 | 1000 to 3000 nM

In the following, a different molecule is considered.
// field: DC50; key: `CCc1cccc2cc(O)cc(-c3ncc4c(N5CC6CCC(C5)N6)nc(OCCC5CCN(CC6CN(c7cc([C@H](C(=O)N8C[C@H](O)C[C@H]8C(=O)N[C@@H](C)c8ccc(-c9scnc9C)cc8)C(C)C)on7)C6)CC5)nc4c3F)c12` ; value = < 600 nM

Cited source: patent US20250206732A1
